Known PLT of a selection of substances
assay: Hematology assays after subcutaneous administration in beagle dogs (Example 8)
Format: in vivo
statedConditions: 30 mg/kg subcutaneous days 1, 3, 5, 8, 15, 22, 29

Below, each entry is followed by its recorded PLT result.
Ask | Find the recorded PLT belonging to 830025 (antisense TTTGTAAATCGAAAGC; 3-10-3 cEt gapmer, further chemistry not given here) [compound 830025] and report it.
Reply | 250 ^3/μL

Ask | Follow-up item: 830037 (antisense CTATTGGCTGATCTGG; 3-10-3 cEt gapmer, further chemistry not given here) [compound 830037]
Reply | 280 ^3/μL

Ask | Now the substance 798781 (CGTAAGATTCACAGCA; 3-10-3 cEt gapmer, further chemistry not given here) [compound 798781]
Reply | 191 ^3/μL

Ask | Then what about the substance 830121 (AGAATCAAGCCCTGGC; 3-10-3 cEt gapmer, further chemistry not given here) [compound 830121] ?
Reply | 249 ^3/μL

Next:
Ask | Entry 829994 (GGAGGCAGGGCCGCGA; 3-10-3 cEt gapmer, further chemistry not given here) [compound 829994] : reported PLT = ?
Reply | 287 ^3/μL

Ask | # iterate: 790615 (CCAATGAGAATGCTTC; 3-10-3 cEt gapmer, further chemistry not given here) [compound 790615]
Reply | 242 ^3/μL

* * *

Spleen weight reference
assay: Body and organ weights after subcutaneous administration in beagle dogs (Example 8)
Type: in vivo
statedConditions: 30 mg/kg subcutaneous days 1, 3, 5, 8, 15, 22, 29, end of study
API: value field is a number in g; no unit string.

Study these solved cases before continuing.
Ask | For the substance shown here, 798781 (CGTAAGATTCACAGCA; 3-10-3 cEt gapmer, further chemistry not given here) [compound 798781] , give the reported Spleen weight.
Reply | 26.4

Ask | What do you get for 830025 (antisense TTTGTAAATCGAAAGC; 3-10-3 cEt gapmer, further chemistry not given here) [compound 830025] ?
Reply | 28.9

Read the next record carefully.
Ask | Look at this substance and give its reported Spleen weight. 830121 (AGAATCAAGCCCTGGC; 3-10-3 cEt gapmer, further chemistry not given here) [compound 830121]
Reply | 27.5

* * *

Tested on: human SMAD7 mRNA
assay: Antisense inhibition of human SMAD7 mRNA expression in Hep3B cells by 3-10-3 cEt gapmers, 10,000 nM, electroporation (Example 2)
Format: cell-based
statedConditions: Hep3B cells, electroporation with 10,000 nM antisense oligonucleotide, approximately 24 hours, SMAD7 mRNA by RT-PCR (RTS5062), relative to untreated control cells
Strand notation (5' to 3'): a small letter for the sugar, then the base; units joined by * are phosphorothioate-linked, units joined directly phosphodiester-linked; [ ] holds rarer units or linkages, { } end groups; capitals alone tell only the bases. k = constrained ethyl (cEt); [5mC] = 5-methylcytosine; d = 2'-deoxy (DNA)
We use 40% as the dividing line for % Inhibition: on or above the line is satisfied, below is not satisfied.

Reference set, count: 5
Ask | Answer whether % Inhibition of 799433 (antisense kT*kT*k[5mC]*dT*dT*dG*dT*dG*dG*dG*dA*dT*dG*kT*kG*kG) [compound 799433] is greater than or equal to 40%.
Reply | satisfied

Ask | Also 799335 (kT*kG*k[5mC]*dA*dG*dG*dA*dG*d[5mC]*dA*dG*dT*dG*k[5mC]*k[5mC]*k[5mC]; antisense) [compound 799335] , if possible.
Reply | not satisfied

Ask | And for 799909 (antisense kA*kT*kT*d[5mC]*dA*dT*dA*dA*dT*dA*dT*dT*dG*kA*k[5mC]*kA) [compound 799909] ?
Reply | not satisfied

Ask | Param item: 830078 (kA*k[5mC]*k[5mC]*dA*d[5mC]*dA*dT*dT*d[5mC]*dA*dG*dG*dG*kT*kG*kT; antisense) [compound 830078]
Reply | not satisfied

Ask | Another substance: 830094 (kT*k[5mC]*kT*dT*dA*d[5mC]*d[5mC]*dT*dG*dA*dA*dA*dG*k[5mC]*k[5mC]*k[5mC]; antisense) [compound 830094]
Reply | not satisfied

Pending substance:
Ask | Hi, just wondering whether 798918 (kT*k[5mC]*kA*dG*d[5mC]*dT*d[5mC]*dA*d[5mC]*dG*d[5mC]*dT*d[5mC]*kT*kG*kT; antisense) [compound 798918] shows % Inhibition of 40% or higher.
Reply | satisfied

* * *

Tested on: human SMAD7 mRNA
assay: Antisense inhibition of human SMAD7 mRNA expression in Hep3B cells by 3-10-3 cEt gapmers, 10,000 nM, electroporation (Example 2)
Assay type: cell-based
statedConditions: Hep3B cells, electroporation with 10,000 nM antisense oligonucleotide, approximately 24 hours, SMAD7 mRNA by RT-PCR (RTS5062), relative to untreated control cells
Strand notation (5' to 3'): a small letter for the sugar, then the base; units joined by * are phosphorothioate-linked, units joined directly phosphodiester-linked; [ ] holds rarer units or linkages, { } end groups; capitals alone tell only the bases. k = constrained ethyl (cEt); [5mC] = 5-methylcytosine; d = 2'-deoxy (DNA)
Parameter threshold = 20%. Response is True when % Inhibition meets or exceeds it, else False.

Worked cases, answers included:
Ask | Reported % Inhibition at or above 20%? 830210 (kG*kA*k[5mC]*d[5mC]*dG*dG*dA*dA*dG*dT*d[5mC]*dT*dT*kG*kT*kA; antisense) [compound 830210]
Reply | True

Ask | Lookup 830180 (antisense k[5mC]*kG*kT*dG*dT*dA*d[5mC]*d[5mC]*d[5mC]*dA*dG*d[5mC]*dT*kG*k[5mC]*k[5mC]) [compound 830180]
Reply | True

Ask | Cool, now 798814 (kA*k[5mC]*k[5mC]*dA*dG*dT*dG*dT*dG*dA*d[5mC]*d[5mC]*dG*kA*kT*k[5mC]; antisense) [compound 798814]
Reply | True

Ask | Cool, now 799884 (k[5mC]*kT*k[5mC]*d[5mC]*dA*dG*dT*dT*dT*d[5mC]*dT*dA*dG*kA*kG*kG; antisense) [compound 799884]
Reply | False

Ask | How about this substance: 799354 (kA*kT*k[5mC]*dT*dA*d[5mC]*dT*d[5mC]*dA*d[5mC]*d[5mC]*dA*dG*kT*kT*kG; antisense) [compound 799354]
Reply | False

New cases:
Ask | # bool: % Inhibition of 830034 (antisense kG*kG*k[5mC]*dT*dG*dA*dT*d[5mC]*dT*dG*dG*dA*dG*kA*kA*k[5mC]) [compound 830034] >= 20%
Reply | True

Ask | Now the same for 800026 (kT*k[5mC]*kA*dG*dT*dA*d[5mC]*dA*dA*dG*dG*dA*d[5mC]*kT*kA*kA; antisense) [compound 800026]
Reply | True

Ask | Request: 798697 (antisense kA*k[5mC]*k[5mC]*dT*d[5mC]*d[5mC]*d[5mC]*d[5mC]*d[5mC]*dT*dG*d[5mC]*dG*k[5mC]*k[5mC]*k[5mC]) [compound 798697]
Reply | True

Ask | Do the same for 798916 (k[5mC]*kG*k[5mC]*dT*d[5mC]*dT*dG*dT*d[5mC]*d[5mC]*d[5mC]*d[5mC]*dT*k[5mC]*k[5mC]*kG; antisense) [compound 798916] please
Reply | False

Ask | Same question, 798830 (kG*kA*kA*dG*dA*dT*dA*dT*d[5mC]*d[5mC]*dA*dG*dA*kG*kA*kG; antisense) [compound 798830] this time
Reply | False

Ask | 800064 (antisense kA*kT*kG*dG*dA*dG*dG*dT*dG*d[5mC]*d[5mC]*d[5mC]*dG*kT*k[5mC]*kA) [compound 800064] ?
Reply | False

Ask | Try this substance too: 799370 (antisense kG*kG*k[5mC]*dA*d[5mC]*dT*d[5mC]*dA*d[5mC]*dT*dA*dA*dG*kT*k[5mC]*kT) [compound 799370]
Reply | False

* * *

Test system: human SMAD7 mRNA
assay: Dose-dependent inhibition of human SMAD7 mRNA expression in Hep3B cells (Example 3, Study 1 and 2)
Assay type: cell-based
statedConditions: 740 nM, electroporation, approximately 16 hours, Study 2, relative to untreated control cells
Strand notation (5' to 3'): a small letter for the sugar, then the base; units joined by * are phosphorothioate-linked, units joined directly phosphodiester-linked; [ ] holds rarer units or linkages, { } end groups; capitals alone tell only the bases. k = constrained ethyl (cEt); [5mC] = 5-methylcytosine; d = 2'-deoxy (DNA)
reportedProperty: % inhibition of SMAD7 mRNA expression (%)
Number in %, nothing else.

Consider the reported % inhibition of SMAD7 mRNA expression for these substances:
Ask | Please report the recorded % inhibition of SMAD7 mRNA expression for 830067 (kG*kA*kA*dA*dT*dG*dG*dT*dG*d[5mC]*dT*d[5mC]*dT*kG*k[5mC]*k[5mC]; antisense) [compound 830067] .
Reply | 23

Ask | Then this substance: 799808 (antisense kG*k[5mC]*kT*dG*dA*dA*dA*dG*dA*dA*dA*dG*dT*k[5mC]*k[5mC]*k[5mC]) [compound 799808]
Reply | 8

Ask | Please give the result for 830208 (kA*kA*kG*dG*dT*dG*dA*d[5mC]*dT*d[5mC]*dA*dT*d[5mC]*kA*kG*kG; antisense) [compound 830208] too.
Reply | 38

Ask | Try 800031 (kA*kG*kA*dA*dA*d[5mC]*dA*d[5mC]*dA*dG*dT*dT*d[5mC]*k[5mC]*k[5mC]*kT; antisense) [compound 800031] next.
Reply | 10

Ask | Another: 798823 (kA*k[5mC]*kA*dG*dT*dA*dG*dA*dG*d[5mC]*d[5mC]*dT*d[5mC]*k[5mC]*k[5mC]*k[5mC]; antisense) [compound 798823]
Reply | 27

Continue with the substance presented below.
Ask | Requested field: % inhibition of SMAD7 mRNA expression. Item: 799070 (antisense kA*kG*kG*dG*dA*dA*dT*dA*dA*dG*dA*d[5mC]*dA*kA*kG*kG) [compound 799070]
Reply | 0
